Target: EGFR del19/T790M/C797S (Homo sapiens, UniProt P00533, C797S/DEL746-750/T790M)
Sequence (P00533 with tags, fused parts or gaps DEL746-750/T790M/C797S): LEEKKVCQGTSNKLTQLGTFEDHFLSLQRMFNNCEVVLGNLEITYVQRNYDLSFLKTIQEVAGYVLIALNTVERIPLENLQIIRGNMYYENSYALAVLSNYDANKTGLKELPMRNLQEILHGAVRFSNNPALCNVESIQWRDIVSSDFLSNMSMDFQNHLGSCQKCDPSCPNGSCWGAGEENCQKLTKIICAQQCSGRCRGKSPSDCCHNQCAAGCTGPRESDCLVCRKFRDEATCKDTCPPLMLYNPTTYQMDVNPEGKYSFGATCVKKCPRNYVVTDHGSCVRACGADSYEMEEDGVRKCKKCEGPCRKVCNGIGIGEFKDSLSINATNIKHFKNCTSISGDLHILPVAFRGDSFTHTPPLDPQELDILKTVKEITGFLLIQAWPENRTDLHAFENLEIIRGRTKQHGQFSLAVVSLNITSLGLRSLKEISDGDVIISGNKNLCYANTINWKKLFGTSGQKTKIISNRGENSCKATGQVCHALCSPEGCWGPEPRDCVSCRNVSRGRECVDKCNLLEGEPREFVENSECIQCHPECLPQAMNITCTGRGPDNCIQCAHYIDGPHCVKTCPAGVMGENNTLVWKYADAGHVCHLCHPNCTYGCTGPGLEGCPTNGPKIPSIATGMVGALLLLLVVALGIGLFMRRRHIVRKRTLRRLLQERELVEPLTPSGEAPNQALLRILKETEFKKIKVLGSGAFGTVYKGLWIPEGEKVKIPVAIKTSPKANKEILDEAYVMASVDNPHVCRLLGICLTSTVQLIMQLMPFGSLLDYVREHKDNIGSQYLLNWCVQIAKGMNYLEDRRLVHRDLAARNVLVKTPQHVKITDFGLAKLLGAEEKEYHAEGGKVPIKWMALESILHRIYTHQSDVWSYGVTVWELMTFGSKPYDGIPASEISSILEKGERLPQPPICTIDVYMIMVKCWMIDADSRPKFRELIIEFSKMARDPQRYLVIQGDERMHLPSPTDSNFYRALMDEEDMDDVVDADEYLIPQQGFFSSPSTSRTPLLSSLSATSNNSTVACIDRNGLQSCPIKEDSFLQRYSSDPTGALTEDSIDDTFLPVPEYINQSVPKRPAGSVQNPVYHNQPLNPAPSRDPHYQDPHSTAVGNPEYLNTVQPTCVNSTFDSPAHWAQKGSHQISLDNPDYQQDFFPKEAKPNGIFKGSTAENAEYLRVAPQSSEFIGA
Test: Biochemical EGFR kinase assay (Lance Ultra TR-FRET), triple mutant del19/T790M/C797S
Conditions: IC50 del19/T790M/C797S (nM) 100 μM ATP, 100 μM ATP

compound	IC50 / nM
CN(C)C[C@H]1CC[C@@H](Nc2cc(Nc3ccnc(-c4cnn(S(=O)(=O)C5CC5)c4)n3)ncc2-c2cc(C(C)(C)O)c(F)cn2)CC1 [Example 107]	0.4
CN1CCN(c2ccc(-c3cnc(Nc4ccnc(-c5cnn(S(=O)(=O)C6CC6)c5)n4)cc3N[C@H]3CC[C@@](C)(O)CC3)nc2)CC1 [Example 83]	0.6
Cc1ccc(-c2cnc(Nc3ccnc(-c4cnn(S(=O)(=O)C5CC5)c4)n3)cc2N[C@H]2CC[C@@](C)(O)CC2)nc1 [Example 8]	0.2

---

Target: EGFR del19/C797S (Homo sapiens, UniProt P00533, C797S/DEL746-750)
Sequence (P00533 with tags, fused parts or gaps DEL746-750/C797S): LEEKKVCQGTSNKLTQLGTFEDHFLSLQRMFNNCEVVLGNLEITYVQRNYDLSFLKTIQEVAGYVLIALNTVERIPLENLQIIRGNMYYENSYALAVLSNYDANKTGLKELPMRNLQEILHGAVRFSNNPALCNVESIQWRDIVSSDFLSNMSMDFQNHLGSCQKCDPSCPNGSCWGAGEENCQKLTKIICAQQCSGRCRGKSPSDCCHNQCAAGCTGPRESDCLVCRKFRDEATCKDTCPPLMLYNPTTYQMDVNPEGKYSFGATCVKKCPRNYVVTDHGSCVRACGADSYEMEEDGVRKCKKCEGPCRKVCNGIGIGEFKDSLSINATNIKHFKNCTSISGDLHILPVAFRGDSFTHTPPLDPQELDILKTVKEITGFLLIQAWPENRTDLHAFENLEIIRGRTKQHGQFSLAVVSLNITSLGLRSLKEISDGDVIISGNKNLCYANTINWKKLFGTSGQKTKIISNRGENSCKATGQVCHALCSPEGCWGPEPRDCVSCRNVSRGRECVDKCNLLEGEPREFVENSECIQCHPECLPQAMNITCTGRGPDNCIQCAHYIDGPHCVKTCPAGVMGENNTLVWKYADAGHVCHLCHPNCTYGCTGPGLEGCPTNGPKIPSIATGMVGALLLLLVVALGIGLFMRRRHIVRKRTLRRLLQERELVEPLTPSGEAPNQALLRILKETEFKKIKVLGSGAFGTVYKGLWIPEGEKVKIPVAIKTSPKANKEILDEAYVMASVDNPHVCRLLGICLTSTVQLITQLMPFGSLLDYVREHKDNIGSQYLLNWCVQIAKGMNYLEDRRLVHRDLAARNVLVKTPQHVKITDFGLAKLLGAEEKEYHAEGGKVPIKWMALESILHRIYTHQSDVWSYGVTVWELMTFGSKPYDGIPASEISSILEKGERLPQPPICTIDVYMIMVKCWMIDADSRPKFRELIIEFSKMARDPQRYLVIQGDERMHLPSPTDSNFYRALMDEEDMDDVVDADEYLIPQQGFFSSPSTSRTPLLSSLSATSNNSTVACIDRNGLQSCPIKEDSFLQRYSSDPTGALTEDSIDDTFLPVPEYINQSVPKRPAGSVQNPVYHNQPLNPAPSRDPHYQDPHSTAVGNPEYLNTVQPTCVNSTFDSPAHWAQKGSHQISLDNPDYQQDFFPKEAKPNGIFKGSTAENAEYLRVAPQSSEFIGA
Test: Biochemical EGFR kinase assay (Lance Ultra TR-FRET), double mutant del19/C797S
Conditions: IC50 del19/C797S, 100 μM ATP
pIC50: −log10 of the molar value.
Classification field: 1 = pIC50 at or over 9; -1 = pIC50 under 9.

smiles-code	qualitative-label
Cc1ccc(-c2cnc(Nc3ccnc(-c4cnn(S(=O)(=O)C5CC5)c4)n3)cc2N[C@H]2CC[C@@](C)(O)CC2)nc1F	-1
CN(C)c1ccnc(-c2cnc(Nc3ccnc(-c4cnn(S(=O)(=O)C5CC5)c4)n3)cc2N[C@H]2CC[C@@](C)(O)CC2)c1	-1
CC(F)(F)c1ccc(-c2cnc(Nc3ccnc(-c4cnn(S(=O)(=O)C5CC5)c4)n3)cc2N[C@H]2CC[C@@](C)(O)CC2)nc1	-1
CN(C)C[C@H]1CC[C@@H](Nc2cc(Nc3ccnc(-c4cnn(S(=O)(=O)C5CC5)c4)n3)ncc2-c2cccc(CC(F)(F)F)n2)CC1	-1
O=S(=O)(C1CC1)n1cc(-c2nccc(Nc3cc(N[C@H]4CC[C@@H](CO)CC4)c(-c4ccc(CC(F)(F)F)cn4)cn3)n2)cn1	-1
CC1CCN(S(=O)(=O)c2ccc(-c3cnc(Nc4ccnc(-c5cnn(S(=O)(=O)C6CC6)c5)n4)cc3N[C@H]3CC[C@@H](C(C)(C)O)CC3)nc2)CC1	-1
CC(C)(O)c1ccc(-c2cnc(Nc3ccnc(-c4cnn(S(=O)(=O)C5CC5)c4)n3)cc2N[C@H]2CC[C@@H](CO)CC2)nc1	-1
Cc1ccc(-c2cnc(Nc3ccnc(-c4cnn(S(=O)(=O)C5CC5)c4)n3)cc2N[C@H]2CC[C@@H](C(C)(C)O)CC2)nc1F	-1
CC(C)(O)c1ccc(-c2cnc(Nc3ccnc(-c4cnn(S(=O)(=O)C5CC5)c4)n3)cc2N[C@H]2CC[C@@](C)(O)CC2)nc1	1
CS(=O)(=O)c1ccc(-c2cnc(Nc3ccnc(-c4cnn(S(=O)(=O)C5CC5)c4)n3)cc2N[C@H]2CC[C@@](C)(O)CC2)nc1	1
CC(C)(O)[C@H]1CC[C@@H](Nc2cc(Nc3ccnc(-c4cnn(S(=O)(=O)C5CC5)c4)n3)ncc2-c2cccc(F)n2)CC1	-1
CN1CCN(C(=O)c2ccc(-c3cnc(Nc4ccnc(-c5cnn(S(=O)(=O)C6CC6)c5)n4)cc3N[C@H]3CC[C@@H](C(C)(C)O)CC3)nc2)CC1	1
C[C@]1(O)CC[C@@H](Nc2cc(Nc3ccnc(-c4cnn(S(=O)(=O)C5CC5)c4)n3)ncc2-c2ccc(OCCN3CCC3)cn2)CC1	1
CN1CCN(C(=O)c2ccc(-c3cnc(Nc4ccnc(-c5cnn(S(=O)(=O)C6CC6)c5)n4)cc3N[C@H]3CC[C@@](C)(O)CC3)nc2)CC1	1
CN(C)C[C@H]1CC[C@@H](Nc2cc(Nc3ccnc(-c4cnn(S(=O)(=O)C5CC5)c4)n3)ncc2-c2cccc(F)n2)CC1	1
CN(C)CCOc1ccc(-c2cnc(Nc3ccnc(-c4cnn(S(=O)(=O)C5CC5)c4)n3)cc2N[C@H]2CC[C@@H](C(C)(C)O)CC2)nc1	1

---

Molecular target: EGFR del19/C797S (Homo sapiens, UniProt P00533, C797S/DEL746-750)
Assay: Biochemical EGFR kinase assay (Lance Ultra TR-FRET), double mutant del19/C797S
Conditions: IC50 del19/C797S (nM) 100 μM ATP, 100 μM ATP
metric-name: IC50 (nM)

compound	metric-name	u	measured-result
C[C@]1(O)CC[C@@H](Nc2cc(Nc3ccnc(-c4cnn(S(=O)(=O)C5CC5)c4)n3)ncc2-c2ccc(N3CCC(F)(F)CC3)cn2)CC1 [Example 47]	IC50	nM	4.2
CC(C)(O)c1ccc(-c2cnc(Nc3ccnc(-c4cnn(S(=O)(=O)C5CC5)c4)n3)cc2N[C@H]2CC[C@@H](C(C)(C)O)CC2)nn1 [Example 88]	IC50	nM	2.2
Cc1ccnc(-c2cnc(Nc3ccnc(-c4cnn(S(=O)(=O)C5CC5)c4)n3)cc2N[C@H]2CC[C@@](C)(O)CC2)c1 [Example 12]	IC50	nM	1
C[C@]1(O)CC[C@@H](Nc2cc(Nc3ccnc(-c4cnn(S(=O)(=O)C5CC5)c4)n3)ncc2-c2ccc(N3CCCCC3)cn2)CC1 [Example 54]	IC50	nM	9.7
O=S(=O)(C1CC1)n1cc(-c2nccc(Nc3cc(NC4CCC(CO)CC4)c(-c4ccc(N5CCOCC5)cn4)cn3)n2)cn1 (stereo not shown) [Example 57]	IC50	nM	1.7
COC1CN(c2ccc(-c3cnc(Nc4ccnc(-c5cnn(S(=O)(=O)C6CC6)c5)n4)cc3N[C@H]3CC[C@@H](CN(C)C)CC3)nc2)C1 [Example 93]	IC50	nM	0.5
C[C@]1(O)CC[C@@H](Nc2cc(Nc3ccnc(-c4cnn(S(=O)(=O)C5CC5)c4)n3)ncc2-c2ccc(N3CC(F)(F)C3)nn2)CC1 [Example 66]	IC50	nM	0.9
CN1CCN(Cc2ccc(-c3cnc(Nc4ccnc(-c5cnn(S(=O)(=O)C6CC6)c5)n4)cc3N3CCC(C)(CO)CC3)nc2)CC1 [Example 1]	IC50	nM	52.3
CC(C)(O)c1cc(-c2cnc(Nc3ccnc(-c4cnn(S(=O)(=O)C5CC5)c4)n3)cc2N[C@H]2CC[C@@](C)(O)CC2)ncc1F [Example 104]	IC50	nM	3.1
CC(C)(O)[C@H]1CC[C@@H](Nc2cc(Nc3ccnc(-c4cnn(S(=O)(=O)C5CC5)c4)n3)ncc2-c2ccc(CN3CCC(O)CC3)cn2)CC1 [Example 98]	IC50	nM	0.3

---

Each entry below lists one item and its recorded IC50 value.
Biological target: EGFR L858R/C797S (Homo sapiens, UniProt P00533, C797S/L858R)
Sequence (P00533 25-1210 C797S/L858R): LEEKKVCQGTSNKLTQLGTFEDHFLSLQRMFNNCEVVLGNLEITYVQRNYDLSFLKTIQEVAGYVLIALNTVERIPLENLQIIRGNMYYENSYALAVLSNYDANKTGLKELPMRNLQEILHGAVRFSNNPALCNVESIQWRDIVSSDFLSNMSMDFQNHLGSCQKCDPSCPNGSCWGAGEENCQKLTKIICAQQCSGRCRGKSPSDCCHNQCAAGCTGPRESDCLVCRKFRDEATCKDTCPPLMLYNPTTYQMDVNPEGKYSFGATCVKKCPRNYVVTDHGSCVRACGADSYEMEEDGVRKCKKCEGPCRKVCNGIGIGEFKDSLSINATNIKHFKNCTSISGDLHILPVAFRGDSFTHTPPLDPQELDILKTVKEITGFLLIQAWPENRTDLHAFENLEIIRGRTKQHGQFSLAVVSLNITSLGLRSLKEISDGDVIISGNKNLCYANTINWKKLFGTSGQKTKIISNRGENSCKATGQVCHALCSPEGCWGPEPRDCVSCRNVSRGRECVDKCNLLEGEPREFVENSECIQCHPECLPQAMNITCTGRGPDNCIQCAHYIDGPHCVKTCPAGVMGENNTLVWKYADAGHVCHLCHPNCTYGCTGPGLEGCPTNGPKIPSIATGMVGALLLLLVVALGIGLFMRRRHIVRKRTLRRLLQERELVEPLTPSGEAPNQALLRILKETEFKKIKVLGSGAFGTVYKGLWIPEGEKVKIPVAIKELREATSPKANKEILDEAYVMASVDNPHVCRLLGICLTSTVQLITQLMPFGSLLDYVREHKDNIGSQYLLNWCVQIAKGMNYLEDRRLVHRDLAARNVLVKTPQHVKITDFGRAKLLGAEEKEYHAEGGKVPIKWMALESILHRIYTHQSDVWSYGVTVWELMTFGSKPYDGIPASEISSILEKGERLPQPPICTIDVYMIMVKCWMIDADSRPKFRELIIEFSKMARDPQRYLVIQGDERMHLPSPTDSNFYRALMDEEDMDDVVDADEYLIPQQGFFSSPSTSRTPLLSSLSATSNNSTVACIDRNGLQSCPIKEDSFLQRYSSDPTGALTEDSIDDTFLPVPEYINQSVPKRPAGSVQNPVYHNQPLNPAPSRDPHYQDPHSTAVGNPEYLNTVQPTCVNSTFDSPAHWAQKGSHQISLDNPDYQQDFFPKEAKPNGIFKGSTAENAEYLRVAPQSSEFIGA
Assay: Biochemical EGFR kinase assay (Lance Ultra TR-FRET), double mutant L858R/C797S
Conditions: IC50 L858R/C797S (nM) 100 μM ATP, 100 μM ATP
metric-name: IC50 (nM)

1) CN1CCN(Cc2ccc(-c3cnc(Nc4ccnc(-c5cnn(S(=O)(=O)C6CC6)c5)n4)cc3N[C@H]3CC[C@@](C)(O)CC3)nc2)CC1 1.9
2) CN1CCN(Cc2ccc(-c3cnc(Nc4ccnc(-c5cnn(S(=O)(=O)C6CC6)c5)n4)cc3N[C@H]3CC[C@](O)(CO)CC3)nc2)CC1 2.1
3) CN(C)C[C@H]1CC[C@@H](Nc2cc(Nc3ccnc(-c4cnn(S(=O)(=O)C5CC5)c4)n3)ncc2-c2cc(C(C)(C)O)c(F)cn2)CC1 1.8
4) CC(C)(O)[C@H]1CC[C@@H](Nc2cc(Nc3ccnc(-c4cnn(S(=O)(=O)C5CC5)c4)n3)ncc2-c2ccc(CN3CCOCC3)cn2)CC1 2

---

Biological target: EGFR L858R/C797S (Homo sapiens, UniProt P00533, C797S/L858R)
Assay: Biochemical EGFR kinase assay (Lance Ultra TR-FRET), double mutant L858R/C797S
Settings: Km ATP; read-out: IC50 L858R/C797S (nM) Km ATP
metric-name: IC50 (nM)

1) C[C@]1(O)CC[C@@H](Nc2cc(Nc3ccnc(-c4cnn(S(=O)(=O)C5CC5)c4)n3)ncc2-c2ccc(N3CCC(O)CC3)cn2)CC1 0.3
2) CN(C)c1ccnc(-c2cnc(Nc3ccnc(-c4cnn(S(=O)(=O)C5CC5)c4)n3)cc2N[C@H]2CC[C@@](C)(O)CC2)n1 4
3) Cc1cnc(-c2cnc(Nc3ccnc(-c4cnn(S(=O)(=O)C5CC5)c4)n3)cc2N[C@H]2CC[C@@](C)(O)CC2)cn1 1
4) C[C@]1(O)CC[C@@H](Nc2cc(Nc3ccnc(-c4cnn(S(=O)(=O)C5CC5)c4)n3)ncc2-c2ccc(N3CC4(COC4)C3)nn2)CC1 0.8

---

Biological target: EGFR L858R/C797S (Homo sapiens, UniProt P00533, C797S/L858R)
Test: Biochemical EGFR kinase assay (Lance Ultra TR-FRET), double mutant L858R/C797S
Details: ATP at Km; read-out: IC50 L858R/C797S, Km ATP
Kindly apply the following: t if IC50 is less than 4 nM, f in every other case.

compound	qualitative-label
C[C@]1(O)CC[C@@H](Nc2cc(Nc3ccnc(-c4cnn(S(=O)(=O)C5CC5)c4)n3)ncc2-c2cc(NCCC(F)(F)F)ccn2)CC1	t
C[C@]1(O)CC[C@@H](Nc2nccc(-c3cnc(Nc4ccnc(-c5cnn(S(=O)(=O)C6CC6)c5)n4)cc3N[C@H]3CC[C@@](C)(O)CC3)n2)CC1	t
CN1CCC(Oc2ccc(-c3cnc(Nc4ccnc(-c5cnn(S(=O)(=O)C6CC6)c5)n4)cc3NC3CCN(CC(F)F)CC3)nc2)CC1	t
CC(C)(O)[C@H]1CC[C@@H](Nc2cc(Nc3ccnc(-c4cnn(S(=O)(=O)C5CC5)c4)n3)ncc2-c2cnc(F)cn2)CC1	f
CN1CCN(C(=O)c2ccc(-c3cnc(Nc4ccnc(-c5cnn(S(=O)(=O)C6CC6)c5)n4)cc3N[C@H]3CC[C@@H](C(C)(C)O)CC3)nc2)CC1	t
CC(C)(O)C1CCC(Nc2cc(Nc3ccnc(-c4cnn(S(=O)(=O)C5CC5)c4)n3)ncc2-c2ccc(C(C)(O)C(F)(F)F)cn2)CC1 (centres unmarked)	f
CN1CCC(Oc2ccc(-c3cnc(Nc4ccnc(-c5cnn(S(=O)(=O)C6CC6)c5)n4)cc3NC3CCC(F)CC3)nc2)CC1 (centres unmarked)	t
CN(C)C[C@H]1CC[C@@H](Nc2cc(Nc3ccnc(-c4cnn(S(=O)(=O)C5CC5)c4)n3)ncc2-c2cc(NC3CC(F)(F)C3)ccn2)CC1	t
CC(C)(F)c1ccc(-c2cnc(Nc3ccnc(-c4cnn(S(=O)(=O)C5CC5)c4)n3)cc2NC2CCC(F)(F)CC2)nc1	f
O=S(=O)(C1CC1)n1cc(-c2nccc(Nc3cc(N[C@H]4CC[C@@H](CCO)CC4)c(-c4ccc(CC(F)(F)F)cn4)cn3)n2)cn1	f
CN1CCN(C(=O)c2ccc(-c3cnc(Nc4ccnc(-c5cnn(S(=O)(=O)C6CC6)c5)n4)cc3N[C@H]3CC[C@@H](CO)CC3)nc2)CC1	t
CN(C)C[C@H]1CC[C@@H](Nc2cc(Nc3ccnc(-c4cnn(S(=O)(=O)C5CC5)c4)n3)ncc2-c2cccc(CC(F)(F)F)n2)CC1	t
CC(C)(O)c1ccc(-c2cnc(Nc3ccnc(-c4cnn(S(=O)(=O)C5CC5)c4)n3)cc2NC2CCC(F)CC2)nc1 (centres unmarked)	t
CN1CCC(F)(COc2cnc(-c3cnc(Nc4ccnc(-c5cnn(S(=O)(=O)C6CC6)c5)n4)cc3N[C@H]3CC[C@@](C)(O)CC3)cn2)CC1	t
Cc1ccc(-c2cnc(Nc3ccnc(-c4cnn(S(=O)(=O)C5CC5)c4)n3)cc2N[C@H]2CC[C@@H](C(C)(C)O)CC2)nc1F	f
CC1(O)CCC(Nc2cc(Nc3ccnc(-c4cnn(S(=O)(=O)C5CC5)c4)n3)ncc2-c2ccc(C(O)C(F)(F)F)cn2)CC1 (centres unmarked)	t
CC(O)(c1ccc(-c2cnc(Nc3ccnc(-c4cnn(S(=O)(=O)C5CC5)c4)n3)cc2NC2CCC(CO)CC2)nc1)C(F)(F)F (centres unmarked)	t
CC(C)(F)c1ccc(-c2cnc(Nc3ccnc(-c4cnn(S(=O)(=O)C5CC5)c4)n3)cc2NC2CCC(F)CC2)nc1 (centres unmarked)	f
CC(C)(O)[C@H]1CC[C@@H](Nc2cc(Nc3ccnc(-c4cnn(S(=O)(=O)C5CC5)c4)n3)ncc2-c2cccc(F)n2)CC1	f
O=S(=O)(C1CC1)n1cc(-c2nccc(Nc3cc(NC4CCC(F)(F)CC4)c(-c4ccc(N5CCC(F)(F)CC5)nn4)cn3)n2)cn1	f
O=C(c1ccc(-c2cnc(Nc3ccnc(-c4cnn(S(=O)(=O)C5CC5)c4)n3)cc2N[C@H]2CC[C@@H](CO)CC2)nc1)N1CCOCC1	t
CS(=O)(=O)c1ccc(-c2cnc(Nc3ccnc(-c4cnn(S(=O)(=O)C5CC5)c4)n3)cc2N[C@H]2CC[C@@H](NCCF)CC2)nc1	t
CC(C)(O)c1ccc(-c2cnc(Nc3ccnc(-c4cnn(S(=O)(=O)C5CC5)c4)n3)cc2N[C@H]2CC[C@@](C)(O)CC2)nc1	t

The reported measurements were obtained from patent US12258328B2.
